experiment-notes: yeast display, Sf9 membrane polyspecificity reagent, FACS + sequencing; frameworks hold sequencing errors
endpoint-name: polyreactivity (PSR sort gate)

The examples below pair each entry with its known result.
QVQLVESGGGLVQAGGRLRLSCAASGRTFDDYAMGWYRQAPGKERELVAVITSGGRTKYADSVKGRFTISRDNAKNTVYLQMNSLKPEDTAVYYCAAREVHDRYGYWGQGTQVTVSS
high polyreactivity
QVQLVESGGGLVQAGGSLRLSCAASGLIFTRNAMGWYRQAPGKERELVATITWSGGRTYYADSVKGRFTISRDNAKNTVYLQMNSLKPEDTAVYYCAAASGPLTYTFFRNDYWGQGTQVTVSS
low polyreactivity
QVQLVESGGGLVQAGGSLRLSCAASGFTFYTNAMGWYRQAPGKEREFVAAISWSGTGTYYADSVKGRFTISRDNAKNTVYLQMNSLKPEDTAVYYCAARDRWRGGRKFDYWGQGTQVTVSS
high polyreactivity
QVQLVESGGGLVQAGGSLRLSCAASGSTFLYYAMGWYRQAPGKERELVAAITSSGGRTYFADSVKGRFTISRDNAQNTVYLQMNSLQPEDTAVYYCARGWPRREQSEYDYWGQGTQVTVSS
high polyreactivity

As a next step, examine the sequence that follows.
Fill in the blank: the reported polyreactivity (PSR sort gate) of QVQLVESGGGLVQAGGSLRLSCAASGLIFNEYAMGWYRQAPGKERELVAAISWSDGGTSYADSVKGRFTISRDNAKNTVYLQMNSLKPEDTAVYYCAKGPRGAHRTHGAYVEMEYWGQGTQVTVSS is ____.
low polyreactivity
